# Test system: Alopecurus myosuroides (ALOMY)
# Experimental Protocol: Post-emergence herbicidal activity, glasshouse pot test
# Type: in vivo
# Experimental Setup: Alopecurus myosuroides, rate 500 g/ha, evaluated after 14 or 15 days, read-out: Post-emergence activity, ALOMY (100=total damage to plant; 0=no damage to plant)
In this section we review reported pest or weed control at 500 g/ha values for a set of compounds.
Please respond with the number in % and leave the unit unwritten.

// solved cases for pest or weed control at 500 g/ha follow
| Compound | Observed Result |
| --- | --- |
| Cc1ccc(-c2ccc(Cl)cc2)cc1C1=C(O)CC2(CCOCC2)CC1=O | 80 |
| CCc1ccc(-c2ccc(Cl)cc2)cc1C1=C(O)CC2(CCOCC2)CC1=O | 90 |
| CCc1cc(C)cc(CC)c1C1=C(O)CC2(CCSCC2)CC1=O | 80 |
| CCSC(C)CC1CC(=O)C(c2c(C)cc(C)cc2CC)=C(O)C1 (centres unmarked) | 70 |

Exercise: What measured pest or weed control at 500 g/ha goes with CCSC(C)CC1CC(=O)C(c2c(CC)cc(C)cc2CC)=C(O)C1 (centres unmarked) ?
Solution: 100

Exercise: And what about the compound CCc1cc(C)cc(CC)c1C1=C(O)CC(CCS(C)(=O)=O)CC1=O (centres unmarked) ?
Solution: 90

Exercise: And what about the compound CCc1cc(CC)c(C2=C(O)CC3(CCOCC3)CC2=O)c(CC)c1 ?
Solution: 80

Exercise: And what about the compound CCc1cc(C)cc(CC)c1C1=C(O)CC(C(C)(C)SC)CC1=O (centres unmarked) ?
Solution: 100

Exercise: And what about the compound CCc1cc(C)cc(CC)c1C1=C(O)CC(CC(C)S(=O)(=O)CC)CC1=O (centres unmarked) ?
Solution: 90
